- study target: T1, Taf14ET (extra-terminal domain of Taf14, aa 168-243) (S. cerevisiae, UniProt P35189 168-243)
- T1 construct: Taf14, S. cerevisiae, UniProt P35189, ET domain, aa 168-243; Uniformly 15N-labelled for NMR; also called ET domain of Taf14
- T1 sequence (looked up): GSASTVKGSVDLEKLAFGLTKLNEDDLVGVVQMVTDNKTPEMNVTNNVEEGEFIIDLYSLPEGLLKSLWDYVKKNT
- protocol description: NMR titration; 1H,15N HSQC of 0.05-0.2 mM 15N-labeled Taf14 proteins, 298 K, unlabeled peptide or Yng1EBM-PHD added; Tris-HCl or PBS, pH 6.6-7.5; apparent Kd from CSPs, 1:1 stoichiometry
- particulars: both partners purified
Parameter: pKd. Scope: all listed entries.
Expect pKd as a plain number equal to -log10 of the molar concentration.

Look over these answered cases.
| binder | pKd |
| --- | --- |
| EPKDLLKINLKK (peptide, UniProt Q08465 113-124, looked up, The wild-type peptide is Ac-...-NH2; source: peptide) [L116D Yng1EBM peptide (aa 113-124 of Yng1)] | 3.74 |
| EPKLLDKINLKK (peptide, UniProt Q08465 113-124, looked up, The wild-type peptide is Ac-...-NH2; source: peptide) [L118D Yng1EBM peptide (aa 113-124 of Yng1)] | 3.37 |

Moving on to the next binder.
Please report the recorded pKd for SEEDKVRIKYDS (peptide, UniProt P34218 111-122, looked up, Sas3, yeast, aa 111-122 with L114D; The wild-type peptide is Ac-...-NH2; source: peptide) [L114D Sas3EBM peptide (aa 111-122 of Sas3)] .
3.27

Values from paper PMC11196586
